A collection of compounds and their measured pIC50
- ASSAYED_TARGET: human SGLT1 (Homo sapiens (Human), UniProt P13866)
- Sequence (P13866 whole entry): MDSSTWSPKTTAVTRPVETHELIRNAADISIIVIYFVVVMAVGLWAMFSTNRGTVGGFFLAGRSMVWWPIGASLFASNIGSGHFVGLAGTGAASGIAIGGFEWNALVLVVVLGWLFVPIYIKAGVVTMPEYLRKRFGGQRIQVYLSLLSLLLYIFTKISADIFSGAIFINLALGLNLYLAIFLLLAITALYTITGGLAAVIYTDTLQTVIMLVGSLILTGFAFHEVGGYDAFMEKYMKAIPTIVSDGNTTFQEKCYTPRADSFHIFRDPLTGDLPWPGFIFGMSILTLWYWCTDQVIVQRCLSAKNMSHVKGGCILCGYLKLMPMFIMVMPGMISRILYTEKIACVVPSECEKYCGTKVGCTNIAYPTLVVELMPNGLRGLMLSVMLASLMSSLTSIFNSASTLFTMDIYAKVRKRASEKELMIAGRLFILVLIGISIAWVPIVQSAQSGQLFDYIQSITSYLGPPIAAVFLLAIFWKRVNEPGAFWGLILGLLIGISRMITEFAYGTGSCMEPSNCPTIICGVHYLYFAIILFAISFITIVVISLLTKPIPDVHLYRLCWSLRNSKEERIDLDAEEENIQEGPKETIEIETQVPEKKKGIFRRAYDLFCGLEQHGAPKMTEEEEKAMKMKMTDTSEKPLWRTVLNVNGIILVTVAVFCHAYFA
- ASSAY: SGLT1 inhibitory activity: 14C-AMG uptake into CHO-K1 cell line stably expressing human SGLT1
- Format: cell-based
- APPLIED_CONDITIONS: 14C-AMG uptake, CHO-K1 cells stably expressing human SGLT1
The quantity pIC50 is defined as the negative base-10 logarithm of the molar concentration.

COCCOc1ccc(F)c(-n2nc(NC(=O)[C@@H]3CNC(=O)C3)cc2-c2cccc(COCC(F)(F)F)c2)c1 [Example 462]: 8.47
CCCc1cccc(-c2cc(NC(=O)[C@H]3CNC(=O)N3C(C)C)nn2-c2ccccc2)c1 [Example 328]: 7.54
C[C@@H](OCc1cccc(-c2cc(NC(=O)[C@@H]3CNC(=O)N3)nn2-c2ccccc2)c1)C(F)(F)F [Example 562]: 7.89
CC(C)Oc1cc(F)cc(-n2nc(NC(=O)[C@@H]3CNC(=O)C3)cc2-c2cccc(COCC(F)(F)F)c2)c1 [Example 529]: 8.64
CCCc1cccc(-c2cc(NC(=O)[C@@H]3CNC(=O)C3)nn2-c2ccc(OC(F)(F)F)cc2)c1 [Example 386]: 7.46
CC(C)Oc1cc(-n2nc(NC(=O)[C@@H]3CNC(=O)C3)cc2-c2cccc(OC(F)(F)F)c2)ccc1F [Example 422]: 7.85

Record CC(C)(C)CCOc1cccc(-c2cc(NC(=O)C3CCC(=O)NC3)nn2-c2ccccc2)c1 (single isomer, unassigned) [Example 342] / human SGLT1 (Homo sapiens (Human), UniProt P13866), pIC50 recorded as 7.35

The reported pIC50 value, human SGLT1 (Homo sapiens (Human), UniProt P13866), for O=C1C[C@H](C(=O)Nc2cc(-c3cc(F)cc(COCC(F)(F)F)c3)n(-c3cccc(Cl)c3)n2)CN1 [Example 511] reads 8.10

For CC(C)Oc1cc(F)cc(-n2nc(NC(=O)[C@@H]3CNC(=O)C3)cc2-c2cccc(CO[C@H](C)C(F)(F)F)c2)c1 [Example 535] on human SGLT1 (Homo sapiens (Human), UniProt P13866), measured pIC50 was 8.55

Entry CCCc1cccc(-c2cc(NC(=O)[C@@H]3CNC(=O)C3)nn2-c2ccc(OCCC(F)(F)F)cc2)c1 [Example 374] , human SGLT1 (Homo sapiens (Human), UniProt P13866) data, pIC50 value: 8.06

Response field pIC50 (human SGLT1 (Homo sapiens (Human), UniProt P13866)) for item CC(C)(OCc1cccc(-c2cc(NC(=O)[C@@H]3CNC(=O)C3)nn2-c2ccc(Cl)cc2)c1)C(F)(F)F [Example 575] : 7.92

Known value: human SGLT1 (Homo sapiens (Human), UniProt P13866) pIC50 of the compound C[C@@H](OCc1cccc(-c2cc(NC(=O)[C@H]3CNC(=O)C3)nn2-c2ccccc2)c1)C(F)(F)F [Example 561] equals 8.26

Result for CC(C)Oc1cccc(-c2cc(NC(=O)[C@@H]3CNC(=O)C3)nn2-c2ccccc2)c1 [Example 301] , tested on human SGLT1 (Homo sapiens (Human), UniProt P13866), pIC50: 7.20

Tested on human SGLT1 (Homo sapiens (Human), UniProt P13866): C[C@@H](OCc1cccc(-c2cc(NC(=O)[C@@H]3CNC(=O)C3)nn2-c2cccc(Cl)c2)c1)C(F)(F)F [Example 506] . Observed pIC50: 8.33

Let me check: CCCCOc1cccc(-c2cc(NC(=O)[C@@H]3CNC(=O)C3)nn2-c2ccccc2)c1 [Example 316] , system human SGLT1 (Homo sapiens (Human), UniProt P13866), measured pIC50 is 7.41

Note to self: pIC50 of C[C@@H](OCc1cc(F)cc(-c2cc(NC(=O)C3CCC(=O)NC3)nn2-c2ccc(Cl)cc2)c1)C(F)(F)F (stereo partly drawn) [Example 572] with human SGLT1 (Homo sapiens (Human), UniProt P13866) was 8.29

Record COCCOc1cccc(-n2nc(NC(=O)[C@@H]3CNC(=O)C3)cc2-c2cccc(COCC(F)(F)F)c2)c1F [Example 483] / human SGLT1 (Homo sapiens (Human), UniProt P13866), pIC50 recorded as 7.23

Bench note, human SGLT1 (Homo sapiens (Human), UniProt P13866): entry CCOc1cc(-n2nc(NC(=O)[C@@H]3CNC(=O)C3)cc2-c2cccc(COCC(F)(F)F)c2)ccc1F [Example 417] , its pIC50 = 8.37

Result for CCCc1cccc(-c2cc(NC(=O)[C@@H]3CNC(=O)C3)nn2-c2ccc(C(F)(F)F)cc2)c1 [Example 402] , tested on human SGLT1 (Homo sapiens (Human), UniProt P13866), pIC50: 7.77

Here CC(C)Oc1ccc(F)c(-n2nc(NC(=O)[C@@H]3CNC(=O)C3)cc2-c2cccc(OC(F)(F)F)c2)c1 [Example 517] was tested on human SGLT1 (Homo sapiens (Human), UniProt P13866), and its pIC50 came to 8.42

Form field pIC50 for item CCCc1cccc(-c2cc(NC(=O)[C@@H]3CNC(=O)C3)nn2-c2cc(C)cc(C)c2)c1 [Example 322] on human SGLT1 (Homo sapiens (Human), UniProt P13866): 8.33

###

- ASSAYED_TARGET: human SGLT1 (Homo sapiens (Human), UniProt P13866)
- ASSAY: SGLT1 inhibitory activity: 14C-AMG uptake into CHO-K1 cell line stably expressing human SGLT1
- Format: cell-based
- APPLIED_CONDITIONS: 14C-AMG uptake, CHO-K1 cells stably expressing human SGLT1
REPORTED_METRIC: IC50
Answer format: number, then unit.

CCCc1cccc(-c2cc(NC(=O)[C@@H]3CNC(=O)C3)nn2-c2ccc(CC)cc2)c1: 0.012 µM
COc1cc(-n2nc(NC(=O)[C@@H]3CNC(=O)C3)cc2-c2cccc(OC(F)(F)F)c2)ccc1F: 0.047 µM
O=C1C[C@H](C(=O)Nc2cc(-c3cc(Cl)cc(COCC(F)(F)F)c3)n(-c3ccc(F)cc3)n2)CN1: 0.055 µM

We now examine a further compound.
Lab book: IC50 of "CCCO[C@@H](C)c1cccc(-c2cc(NC(=O)[C@@H]3CNC(=O)C3)nn2-c2ccccc2)c1" noted as 0.031 µM

###

- ASSAYED_TARGET: human SGLT1 (Homo sapiens (Human), UniProt P13866)
- ASSAY: SGLT1 inhibitory activity: 14C-AMG uptake into CHO-K1 cell line stably expressing human SGLT1
- Type: cell-based
- APPLIED_CONDITIONS: 14C-AMG uptake, CHO-K1 cells stably expressing human SGLT1
pIC50: −log10 of the molar value.
Param threshold (8) applies to pIC50; output Yes when value >= threshold, No when value < threshold.

Check out these entries, answers already filled in.
O=C1NC[C@@H](C(=O)Nc2cc(-c3cccc(COCC(F)(F)F)c3)n(-c3ccccc3)n2)N1 [Example 558]: No
CCCc1cccc(-c2cc(NC(=O)[C@@H]3CNC(=O)C3)nn2-c2cccc(OC(=O)OC(C)(C)C)c2)c1 [Example 388]: Yes
CCCc1cccc(-c2cc(NC(=O)C3CNC(=O)C3CC)nn2-c2ccccc2)c1 (single isomer, unassigned) [Example 309]: No

Now for another entry.
# check: pIC50 of CC(C)Oc1ccc(F)c(-n2nc(NC(=O)[C@@H]3CNC(=O)C3)cc2-c2cccc(CO[C@H](C)C(F)(F)F)c2)c1 [Example 464] is greater than or equal to 8
Yes

###

- ASSAYED_TARGET: UniProt P13866
- ASSAY: SGLT1 inhibitory activity: 14C-AMG uptake into CHO-K1 cell line stably expressing human SGLT1
- Assay type: cell-based
- APPLIED_CONDITIONS: 14C-AMG uptake, CHO-K1 cells stably expressing human SGLT1
REPORTED_METRIC: IC50 (µM)
The answer is to be given in µM; state only the numeric part.

CCCc1cccc(-c2cc(NC(=O)C3CCS(=O)(=O)C3)nn2-c2ccccc2)c1 (racemic): 0.003
CCOc1cccc(-n2nc(NC(=O)[C@@H]3CNC(=O)C3)cc2-c2cccc(OC(F)(F)F)c2)c1F: 0.025
CCOCc1cccc(-c2cc(NC(=O)[C@@H]3CNC(=O)C3)nn2-c2ccccc2)c1: 0.11
CC(C)(OCc1cc(F)cc(-c2cc(NC(=O)[C@@H]3CNC(=O)C3)nn2-c2ccccc2)c1)C(F)(F)F: 0.014
CCCOC(C)(C)c1cccc(-c2cc(NC(=O)[C@@H]3CNC(=O)C3)nn2-c2ccccc2)c1: 0.015
CCOc1ccc(F)c(-n2nc(NC(=O)[C@@H]3CNC(=O)C3)cc2-c2cccc(OC(F)(F)F)c2)c1: 0.0083
C[C@@H](OCc1cc(F)cc(-c2cc(NC(=O)[C@@H]3CNC(=O)C3)nn2-c2ccccc2F)c1)C(F)(F)F: 0.00385

Now turn to the next compound.
Recorded IC50 (compound "C[C@@H]1C(=O)NC[C@H]1C(=O)Nc1cc(-c2cccc(CO[C@H](C)C(F)(F)F)c2)n(-c2ccccc2)n1" ): 0.045
